Each recorded value in this set is attributed to the supplement of paper PMC10567573.

B1: NETO1 (parent)
chain: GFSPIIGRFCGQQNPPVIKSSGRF

variants of: B1; experiment: protein stability index of a GFP-peptide fusion (GPS, HEK-293T) (PSI 1-6); higher = more stable; settings: c terminus: a fixed tail appended;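 note: lentivirally expressed fusions sorted by FACS into six bins by GFP to DsRed ratio, PSI derived from sequencing read proportions per bin multiplied by bin number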
Label TRUE when protein stability index is at or above 2; anything below gets FALSE.

Some solved cases for reference:
Prompt: Is the recorded value of protein stability index equal to or greater than 2 for this variant? GFSPIIGRFCGQQNPPVKKSSGRF [I18K]
Completion: TRUE

Prompt: Is the recorded value of protein stability index equal to or greater than 2 for this variant? GFSPIVGRFCGQQNPPVIKSSGRF [I6V]
Completion: TRUE

Prompt: Is the recorded value of protein stability index equal to or greater than 2 for this variant? GASPIIGRFCGQQNPPVIKSSGRF [F2A]
Completion: TRUE

Prompt: Is the recorded value of protein stability index equal to or greater than 2 for this variant? GFSPIIGRFCGQQNPPVIHSSGRF [K19H]
Completion: FALSE

Prompt: Is the recorded value of protein stability index equal to or greater than 2 for this variant? GFSPIIGRFCGQSNPPVIKSSGRF [Q13S]
Completion: FALSE

Prompt: Is the recorded value of protein stability index equal to or greater than 2 for this variant? GFSPIIGRFCGQQNPPVIKSDGRF [S21D]
Completion: FALSE

Prompt: Is the recorded value of protein stability index equal to or greater than 2 for this variant? GFSPIIGRDCGQQNPPVIKSSGRF [F9D]
Completion: TRUE

Prompt: Is the recorded value of protein stability index equal to or greater than 2 for this variant? GFSPIIGRFCGKQNPPVIKSSGRF [Q12K]
Completion: TRUE

Continuing:
Prompt: Is the recorded value of protein stability index equal to or greater than 2 for this variant? GFSPVIGRFCGQQNPPVIKSSGRF [I5V]
Completion: FALSE

Prompt: Is the recorded value of protein stability index equal to or greater than 2 for this variant? GFSPIIGRFCGQQNPPFIKSSGRF [V17F]
Completion: FALSE

Prompt: Is the recorded value of protein stability index equal to or greater than 2 for this variant? HFSPIIGRFCGQQNPPVIKSSGRF [G1H]
Completion: FALSE

Prompt: Is the recorded value of protein stability index equal to or greater than 2 for this variant? GFAPIIGRFCGQQNPPVIKSSGRF [S3A]
Completion: TRUE

Prompt: Is the recorded value of protein stability index equal to or greater than 2 for this variant? GFSPIIGRFCGQQNPPVSKSSGRF [I18S]
Completion: TRUE
